Data origin: PubChem BioAssay AID1918999

tested on: 556581-035-R-J1-PDC complex spheroid growth; assay: Anticancer human tumor 556581-035-R-J1-PDC patient-derived ovarian carcinoma cell line growth inhibition [AhR]; conditions: second compound 3.16 µM; first compound 0.001 µM; stronger effect = lower value
PARAMETER MEASURED: viability, T/C

Exercise: Could you tell me which viability, T/C is on file for CC[C@@]1(O)C(=O)OCc2c1cc1n(c2=O)Cc2cc3c(CN(C)C)c(O)ccc3nc2-1 + CC(CO)NC(=O)c1cc(-c2ccc(Cl)cc2)nn(-c2cnn(C)c2)c1=O ?
Solution: 97%

Exercise: Param item = Cn1ncnc1C1c2n[nH]c(=O)c3cc(F)cc(c23)NC1c1ccc(F)cc1 (stereo unspecified) + Cc1ccccc1N=Nc1ccc(NC(=O)c2ccnn2C)c(C)c1 ; retrieve measured viability, T/C.
Solution: 101%

Exercise: Value lookup for viability, T/C; key = CC[C@@]1(O)C(=O)OCc2c1cc1n(c2=O)Cc2cc3c(CN(C)C)c(O)ccc3nc2-1 + Cc1ccccc1N=Nc1ccc(NC(=O)c2ccnn2C)c(C)c1
Solution: 83%

Exercise: // query viability, T/C value for entry CC[C@@]1(O)C(=O)OCc2c1cc1n(c2=O)Cc2cc3c(CN(C)C)c(O)ccc3nc2-1 + Cc1cncc(-c2nc(NCCc3c[nH]c4ccccc34)c3ncn(C(C)C)c3n2)c1
Solution: 101%

Exercise: Could you share which viability, T/C value was measured for Cn1ncnc1C1c2n[nH]c(=O)c3cc(F)cc(c23)NC1c1ccc(F)cc1 (stereo unspecified) + Cc1cncc(-c2nc(NCCc3c[nH]c4ccccc34)c3ncn(C(C)C)c3n2)c1 ?
Solution: 107%

Exercise: I would be grateful if you could share the reported viability, T/C for Cn1ncnc1C1c2n[nH]c(=O)c3cc(F)cc(c23)NC1c1ccc(F)cc1 (stereo unspecified) + CC(CO)NC(=O)c1cc(-c2ccc(Cl)cc2)nn(-c2cnn(C)c2)c1=O .
Solution: 110%

====

system: 556581-035-R-J1-PDC complex spheroid growth; experiment: Anticancer human tumor 556581-035-R-J1-PDC cell line growth inhibition [AhR]; conditions: curve of first compound; second compound 3.16 µM
Record form. Attribute: pIC50. Fill in for each entry.
The read-out pIC50 is expressed as -log10 of concentration in moles per litre.

Exercise: Query the reported pIC50 for 556581-035-R-J1-PDC complex spheroid growth; item: CC(C)CC(NC(=O)C(Cc1ccccc1)NC(=O)c1cnccn1)B(O)O (stereo unspecified) + CC(CO)NC(=O)c1cc(-c2ccc(Cl)cc2)nn(-c2cnn(C)c2)c1=O
Solution: 8.33

Exercise: Query pIC50 on 556581-035-R-J1-PDC complex spheroid growth for CC1COCCN1c1cc(-c2ccnn2C)c2ccnc(-c3ccn[nH]3)c2n1 (stereo unspecified) + Cc1ccccc1N=Nc1ccc(NC(=O)c2ccnn2C)c(C)c1
Solution: 6.12

Exercise: Give the reported pIC50 for Nc1ccccc1NC(=O)c1ccc(CNC(=O)OCc2cccnc2)cc1 + Cc1ccccc1N=Nc1ccc(NC(=O)c2ccnn2C)c(C)c1 (system: 556581-035-R-J1-PDC complex spheroid growth).
Solution: 5.58

Exercise: What pIC50 appears in the records for this molecule with 556581-035-R-J1-PDC complex spheroid growth? COc1cccc2c1C(=O)c1c(O)c3c(c(O)c1C2=O)CC(O)(C(=O)CO)CC3OC1CC(N)C(O)C(C)O1 (stereo unspecified) + CC(CO)NC(=O)c1cc(-c2ccc(Cl)cc2)nn(-c2cnn(C)c2)c1=O
Solution: 6.43

====

test system: 556581-035-R-J1-PDC complex spheroid growth; assay: Anticancer human tumor 556581-035-R-J1-PDC cell line growth inhibition [AhR]; conditions: second compound 0.1 µM; first compound 3.16 µM; stronger effect = lower value;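 for viability, T/C: compound exposure lasted 7 days; 100% = DMSO vehicle control growth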
I'd appreciate it if you could supply viability, T/C values for the items below.
// units = %; emit number, no label

Exercise: // returns reported viability, T/C for input O=C(c1cc(Cc2n[nH]c(=O)c3ccccc23)ccc1F)N1CCN(C(=O)C2CC2)CC1 + Cc1ccccc1N=Nc1ccc(NC(=O)c2ccnn2C)c(C)c1
Solution: 78.3

Exercise: viability, T/C for Nc1ccccc1NC(=O)c1ccc(CNC(=O)OCc2cccnc2)cc1 + Cc1ccccc1N=Nc1ccc(NC(=O)c2ccnn2C)c(C)c1 ?
Solution: 40.8

Exercise: Give its viability, T/C value. Item: CC1COCCN1c1cc(C2(S(C)(=N)=O)CC2)nc(-c2ccnc3[nH]ccc23)n1 (stereo unspecified) + Cc1ccccc1N=Nc1ccc(NC(=O)c2ccnn2C)c(C)c1
Solution: 78.4

Exercise: Bench note: what viability, T/C did CC1(C)CCC(CN2CCN(c3ccc(C(=O)NS(=O)(=O)c4ccc(NCC5CCOCC5)c([N+](=O)[O-])c4)c(Oc4cnc5[nH]ccc5c4)c3)CC2)=C(c2ccc(Cl)cc2)C1 + Cc1cncc(-c2nc(NCCc3c[nH]c4ccccc34)c3ncn(C(C)C)c3n2)c1 show?
Solution: 93.1

Exercise: Sample Nc1ccccc1NC(=O)c1ccc(CNC(=O)OCc2cccnc2)cc1 + CC(CO)NC(=O)c1cc(-c2ccc(Cl)cc2)nn(-c2cnn(C)c2)c1=O — what was its viability, T/C?
Solution: 36.9

Exercise: Recorded viability, T/C for NS(=O)(=O)OCC1CC(n2ccc3c(NC4CCc5ccccc54)ncnc32)CC1O (stereo unspecified) + Cc1ccccc1N=Nc1ccc(NC(=O)c2ccnn2C)c(C)c1 , please?
Solution: 106

Exercise: Request the reported viability, T/C associated with CC1(C)CCC(CN2CCN(c3ccc(C(=O)NS(=O)(=O)c4ccc(NCC5CCOCC5)c([N+](=O)[O-])c4)c(Oc4cnc5[nH]ccc5c4)c3)CC2)=C(c2ccc(Cl)cc2)C1 + CC(CO)NC(=O)c1cc(-c2ccc(Cl)cc2)nn(-c2cnn(C)c2)c1=O
Solution: 96.5

Exercise: Quick one: viability, T/C of COc1cc(Nc2ncc3c(n2)-c2ccc(Cl)cc2C(c2c(F)cccc2OC)=NC3)ccc1C(=O)O + CC(CO)NC(=O)c1cc(-c2ccc(Cl)cc2)nn(-c2cnn(C)c2)c1=O ?
Solution: 61.3

Exercise: What viability, T/C value was documented for this compound, O=C(C=Cc1cccc(S(=O)(=O)Nc2ccccc2)c1)NO + Cc1ccccc1N=Nc1ccc(NC(=O)c2ccnn2C)c(C)c1 ?
Solution: 28.4

Exercise: Would you kindly share the measured viability, T/C for CC(C)c1c(-c2ccccc2)nc2c(C#N)c[nH]n2c1=O + Cc1ccccc1N=Nc1ccc(NC(=O)c2ccnn2C)c(C)c1 ?
Solution: 97.7

Exercise: Consider the compound CC(C)c1c(-c2ccccc2)nc2c(C#N)c[nH]n2c1=O + CC(CO)NC(=O)c1cc(-c2ccc(Cl)cc2)nn(-c2cnn(C)c2)c1=O and give its measured viability, T/C.
Solution: 90.2

Exercise: Requested field: viability, T/C. Item: COc1cccc2c1C(=O)c1c(O)c3c(c(O)c1C2=O)CC(O)(C(=O)CO)CC3OC1CC(N)C(O)C(C)O1 (stereo unspecified) + Cc1cncc(-c2nc(NCCc3c[nH]c4ccccc34)c3ncn(C(C)C)c3n2)c1
Solution: 0.94

Exercise: # viability, T/C lookup, item Nc1ccn(C2OC(CO)C(O)C2(F)F)c(=O)n1 (stereo unspecified) + Cc1cncc(-c2nc(NCCc3c[nH]c4ccccc34)c3ncn(C(C)C)c3n2)c1
Solution: 34.1

Exercise: Name the recorded viability, T/C for Nc1ccn(C2OC(CO)C(O)C2(F)F)c(=O)n1 (stereo unspecified) + Cc1ccccc1N=Nc1ccc(NC(=O)c2ccnn2C)c(C)c1 .
Solution: 35.5

Exercise: Find the recorded viability, T/C belonging to CC(C)c1c(-c2ccccc2)nc2c(C#N)c[nH]n2c1=O + Cc1cncc(-c2nc(NCCc3c[nH]c4ccccc34)c3ncn(C(C)C)c3n2)c1 and report it.
Solution: 108

Exercise: Data request, read-out viability, T/C, for O=C(c1cc(Cc2n[nH]c(=O)c3ccccc23)ccc1F)N1CCN(C(=O)C2CC2)CC1 + Cc1cncc(-c2nc(NCCc3c[nH]c4ccccc34)c3ncn(C(C)C)c3n2)c1
Solution: 94.6

Exercise: Which viability, T/C value is on record for COc1cccc2c1C(=O)c1c(O)c3c(c(O)c1C2=O)CC(O)(C(=O)CO)CC3OC1CC(N)C(O)C(C)O1 (stereo unspecified) + Cc1ccccc1N=Nc1ccc(NC(=O)c2ccnn2C)c(C)c1 ?
Solution: 2.13

Exercise: Could you share which viability, T/C value was measured for Nc1ccccc1NC(=O)c1ccc(CNC(=O)OCc2cccnc2)cc1 + Cc1cncc(-c2nc(NCCc3c[nH]c4ccccc34)c3ncn(C(C)C)c3n2)c1 ?
Solution: 46.2

Exercise: Returns the measured viability, T/C for the input compound. Input: COc1cc(C2c3cc4c(cc3C(OC3OC5COC(C)OC5C(O)C3O)C3COC(=O)C23)OCO4)cc(OC)c1O (stereo unspecified) + Cc1ccccc1N=Nc1ccc(NC(=O)c2ccnn2C)c(C)c1
Solution: 68.8

Exercise: What value of viability, T/C has been reported for the following compound? CC1(C)CCC(CN2CCN(c3ccc(C(=O)NS(=O)(=O)c4ccc(NCC5CCOCC5)c([N+](=O)[O-])c4)c(Oc4cnc5[nH]ccc5c4)c3)CC2)=C(c2ccc(Cl)cc2)C1 + Cc1ccccc1N=Nc1ccc(NC(=O)c2ccnn2C)c(C)c1
Solution: 106

Exercise: # viability, T/C lookup, item COc1ccc([C@@H](O)c2cc(-c3ncnc4cc(N5CCOCC5)ccc34)c(F)cc2Cl)nn1 + Cc1ccccc1N=Nc1ccc(NC(=O)c2ccnn2C)c(C)c1
Solution: 59.4
